- System: LNcap cells
- Test Details: Inhibitory effect on proliferation of LNcap cells (CCK-8, 72 h)
- Format: cell-based
- Recorded Conditions: Homo sapiens, LNcap cells, CCK-8, read-out: LNcap cells IC50
pIC50: −log10 of the molar value.
Property: pIC50

Reference set, count: 4
{"Compound": "Nc1ncccc1-c1nc2ccc(-c3cccc(N4CCN(C5COC5)CC4)c3)nc2n1-c1ccc(C2(N)CCC2)cc1", "pIC50": 7.92}
{"Compound": "CC(=O)N1CC2CN(c3cccc(-c4ccc5nc(-c6cccnc6N)n(-c6ccc(C7(N)CCC7)cc6)c5n4)c3)CC21 (stereo not drawn)", "pIC50": 7.85}
{"Compound": "CC(=O)N(C)[C@@H]1C[C@H]2CC[C@@H](C1)N2c1cccc(-c2ccc3nc(-c4cccnc4N)n(-c4ccc(C5(N)CCC5)cc4)c3n2)c1", "pIC50": 7.33}
{"Compound": "CN1CC2(CC1=O)CN(c1cccc(-c3ccc4nc(-c5cccnc5N)n(-c5ccc(C6(N)CCC6)cc5)c4n3)c1F)C2", "pIC50": 8.40}

a. Nc1ncccc1-c1nc2ccc(-c3cccc(N4CCC(N5CCCC5=O)CC4)c3)nc2n1-c1ccc(C2(N)CCC2)cc1
b. Nc1ncccc1-c1nc2ccc(-c3cccc(N4CCC(N5CCCCS5(=O)=O)CC4)c3F)nc2n1-c1ccc(C2(N)CCC2)cc1
Query: Smaller pIC50 value, a vs b ? Choose, then provide that item's label.
Result: b
(b: 8.00, a: 8.52)
